Target Or System: Methionine aminopeptidase (Escherichia coli K-12)
Experiment Notes: Inhibition of Co2+ loaded MetAP expressed in Escherichia coli at 10 uM
Reported inhibition values for the following molecules.
The answer is to be given in %; state only the numeric part.

Record excerpt, results attached:
- c1cncc(-c2nc3ccccc3[nH]2)c1: 4.21
- c1coc(-c2nc3ccccc3[nH]2)c1 [FUBERIDAZOLE]: 10.4
- COC(=O)Nc1nc2cc(Sc3ccccc3)ccc2[nH]1: 6.07

Given the entry `c1csc(-c2nc3ccccc3[nH]2)c1` , report its measured inhibition. 5.36

Given the entry `Oc1ccccc1-c1nc2ccccc2[nH]1` , report its measured inhibition. 30.4

Given the entry COC(=O)Nc1nc2ccccc2[nH]1 [CARBENDAZIM] , report its measured inhibition. 17.6

Given the entry `CCCSc1ccc2[nH]c(NC(=O)OC)nc2c1` , report its measured inhibition. 15.4

Given the entry `COC(=O)Nc1nc2cc(C(=O)c3ccccc3)ccc2[nH]1` , report its measured inhibition. 29

Given the entry `Cc1cc2nc(-c3cscn3)[nH]c2cc1C` , report its measured inhibition. 47.8
